solubility reference
- Experimental details: Water solubility (maximum solubility) of hydrotropic agents
- Test context: water
Report the value in mM with no unit label.

Solved cases below.
CCN(CC)C(=O)c1ccc(=O)[nH]c1 [6-Hydroxy-N,N-diethylnicotinamide]    2000
Cc1ccc(S(=O)(=O)[O-])cc1.[Na+] [Sodium p-toluenesulfonate]    2500

Turning now to a further record.
Consider Cc1ccc(S(=O)(=O)[O-])c(C)c1.[Na+] [Sodium xylenesulfonate] . Its measured solubility is 2500

====

PTX Solubility reference
- Experimental details: Paclitaxel aqueous solubility in the presence of hydrotropic agents, polymers and hydrogels (HPLC)
Report the value in µg/mL with no unit label.

Solved cases below.
NC(=O)c1cccc(C(N)=O)n1 [2,6-pyridinedicarboxamide]    0
CCN(CC)C(=O)c1cccnc1O [2-hydroxy-N,N-diethylnicotinamide]    0
NC(N)=O [urea]    1
C=C(C)C(=O)OCCOP(=O)([O-])OCC[N+](C)(C)C [2-methacryloyloxyethyl phosphorylcholine]    3199

Consider NC(=O)c1ccncc1C(N)=O [3,4-pyridinedicarboxamide] . Its measured PTX Solubility is 0

====

- Experimental details: Progesterone aqueous solubility in hydrotropic solutions
- Assay type: physicochemical
- Test context: water without hydrotropic agent, water; 0.0 M, 37° C., mean ±SD, n=3; read-out: Progesterone solubility in hydrotropic solutions
Parameter: solubility (µg/mL)
Report the value in µg/mL with no unit label.

Consider CC(=O)[C@H]1CC[C@H]2[C@@H]3CCC4=CC(=O)CC[C@]4(C)[C@H]3CC[C@]12C [Progesterone] . Its measured solubility is 1.2

====

log10(solubility) reference
- Experimental details: physchem
- Test context: water
Note the log scale: values are log10 of solubility expressed in mM.

CC(=O)OCC(COC(C)=O)OC(C)=O [glyceryl triacetate]    2.30
CC(C)N(C(=O)c1cccnc1)C(C)C [diisopropylnicotinamide, N,N-diisopropylnicotinamide]    1.70
CCN(CC)C(=O)c1cccnc1O [2-hydroxy-N,N-diethylnicotinamide]    2.30

Consider NC(=O)c1cccc(C(N)=O)n1 [2,6-pyridinedicarboxamide] . Its measured log10(solubility) is 0.40

Consider Nc1ncnc2c1ncn2[C@@H]1O[C@H](CO)[C@@H](O)[C@H]1O . Its measured log10(solubility) is 0.70

Consider Nc1ccc(C(=O)O)c(O)c1 . Its measured log10(solubility) is 0.70

Consider NC(=O)c1ccncc1C(N)=O [3,4-pyridinedicarboxamide] . Its measured log10(solubility) is 1.40
